Provide the recorded IC80 (µg/ml) with constrains for the entries that follow.
molecular target: HIV Env of isolate BJOX010000.06.2 (clade AE) (HIV); assay: cell-based or functional assay
Please reply with the bare figure in µg/mL and do not write the unit itself.

Entry PGDM1400 (antibody, V domains shown) VH: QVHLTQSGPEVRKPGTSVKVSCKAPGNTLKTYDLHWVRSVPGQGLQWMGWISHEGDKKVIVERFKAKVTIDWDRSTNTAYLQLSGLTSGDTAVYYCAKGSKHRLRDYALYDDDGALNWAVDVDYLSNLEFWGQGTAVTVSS VL: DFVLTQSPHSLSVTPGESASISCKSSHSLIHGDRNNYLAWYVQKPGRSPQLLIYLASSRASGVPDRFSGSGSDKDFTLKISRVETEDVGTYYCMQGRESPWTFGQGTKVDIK has what IC80 (µg/ml) with constrains? 3.48

Entry ePGDM13 (antibody, V domains shown) VH: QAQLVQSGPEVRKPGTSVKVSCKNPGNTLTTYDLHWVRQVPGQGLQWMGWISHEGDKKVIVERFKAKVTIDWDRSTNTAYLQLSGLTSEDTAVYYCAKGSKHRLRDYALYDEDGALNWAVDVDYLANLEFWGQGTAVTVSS VL: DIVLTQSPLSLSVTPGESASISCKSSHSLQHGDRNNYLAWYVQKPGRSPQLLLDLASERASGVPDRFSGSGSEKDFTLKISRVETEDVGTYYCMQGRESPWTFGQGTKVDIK has what IC80 (µg/ml) with constrains? 3.92

Entry ePGDM5 (antibody, V domains shown) VH: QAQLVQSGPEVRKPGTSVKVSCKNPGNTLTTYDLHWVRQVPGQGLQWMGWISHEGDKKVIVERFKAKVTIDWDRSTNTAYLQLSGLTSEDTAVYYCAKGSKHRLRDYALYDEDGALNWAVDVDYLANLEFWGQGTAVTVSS VL: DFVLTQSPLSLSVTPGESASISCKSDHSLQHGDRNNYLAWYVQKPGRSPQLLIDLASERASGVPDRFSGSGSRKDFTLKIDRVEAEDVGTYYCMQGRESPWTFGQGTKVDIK has what IC80 (µg/ml) with constrains? 2.15
